The origin of these recorded values is patent US20210380703A1.

The following binders are listed with their measured optical density values.
- assayedTarget: T1, biotinylated goat anti-human kappa light chain
- T1 construct: positive control of the ELISA
- assayMethodText: ELISA, positive control; note: test concentration or dose not given here

# binder, optical density [OD]
data = [
    ("371_B02 (antibody, V domains shown, Group II) VH: EVQLLESGGGLVQPGGSLRLSCAASGFTFDSYGMNWVRQAPGKGLEWVSNINYNGGYTSYADSVKGRFTISRDNSKNTLYLQMNSLRAEDTAVYYCARAATWHDTHLDYWGQGTLVTVSS VL: DIQMTQSPSSLSASVGDRVTITCRASQSILTYVNWYQQKPGKAPKLVIYAATSLASGVPSRFSGSGSGTDFTLTISSLQPEDFATYYCQQSYNNPLTFGGGTKVEIK", 3.59),
    ("369_C09 (antibody, V domains shown, Group II) VH: EVQLLESGGGLVQPGGSLRLSCAASGFTFSSYGMHWVRQAPGKGLEWVSSINYNGGYTGYADSVKGRFTISRDNSKNTLYLQMNSLRAEDTAVYYCARAATWHDTHLDYWGQGTLVTVSS VL: DIQMTQSPSSLSASVGDRVTITCRASQSIVSYLNWYQQKPGKAPKLVIYAATSRHSGVPSRFSGSGSGTDFTLTISSLQPEDFATYYCQQSYDLPLTFGGGTKVEIK", 3.41),
    ("365_H07 (antibody, V domains shown, Group III) VH: EVQLLESGGGLVQPGGSLRLSCAASGFTFDSYSMNWVRQAPGKGLEWVSGINYNGGYTSYADSVKGRFTISRDNSKNTLYLQMNSLRAEDTAVYYCARGANWHDTHLDYWGQGTLVTVSS VL: DIQMTQSPSSLSASVGDRVTITCRASQSISTYVNWYQQKPGKAPKLLIYAATSRHSGVPSRFSGSGSGTDFTLTISSLQPEDFATYYCQQSYENPLTFGGGTKVEIK", 3.43),
    ("369_H03 (antibody, V domains shown, Group I) VH: EVQLLESGGGLVQPGGSLRLSCAASGFTFSSYSMHWVRQAPGKGLEWVASINYNSGYKSYADSVKGRFTISRDNSKNTLYLQMNSLRAEDTAVYYCARAANWHDTALDYWGQGTLVTVSS VL: DIQMTQSPSSLSASVGDRVTITCRASQSIVSYLNWYQQKPGKAPKLLIYATTSRASGVPSRFSGSGSGTDFTLTISSLQPEDFATYYCQQSYDTPLTFGGGTKVEIK", 3.47),
]
